# System Under Test: UniProt:P32307
# Assay Remarks: Inhibition of LVP stimulated adenylate cyclase activity in pig kidney medullary membrane
Metric: pKi
Give bare numbers, as −log10 of the molar value.

Query :: # input compound: CCOc1ccc(C[C@H]2NC(=O)CC3(CCCCC3)SSC[C@@H](C(=O)N[C@@H](CCCNC(=N)N)C(N)=O)NC(=O)[C@H](CCN)NC(=O)[C@H](C(C)C)NC(=O)[C@H](Cc3ccccc3)NC2=O)cc1 ; wanted: its pKi
Result :: 8.60

* * *

# System Under Test: UniProtKB P32307
# Assay Remarks: Affinity for vasopressin V2-receptor of porcine renal medullary membrane
# Assay type: tissue-based
# Cond: Renal medulla
Metric: K bind (nM)
One number for each entry, in nM.

Chem Smiles | K bind (nM)
CCOc1ccc(C[C@@H]2NC(=O)CC3(CCCCC3)SSC[C@H](C(=O)N3CCC[C@H]3C(=O)N[C@@H](CCCN=C(N)N)C(N)=O)NC(=O)[C@@H](CC(N)=O)NC(=O)[C@H](C(C)C)NC(=O)[C@@H](Cc3ccccc3)NC2=O)cc1 | 12
CCOc1ccc(C[C@@H]2NC(=O)CC3(CCCCC3)SSC[C@H](C(=O)N[C@H](CCCN=C(N)N)C(N)=O)NC(=O)[C@@H](CCN)NC(=O)[C@H](C(C)C)NC(=O)[C@@H](Cc3ccccc3)NC2=O)cc1 | 4.4
CCOc1ccc(C[C@@H]2NC(=O)CC3(CCCCC3)SSC[C@H](C(=O)N[C@@H](CCCCN)C(N)=O)NC(=O)[C@@H](CCN)NC(=O)[C@H](C(C)C)NC(=O)[C@@H](Cc3ccccc3)NC2=O)cc1 | 26

Attention now shifts to the item below.
Query :: Return reported K bind; argument: CCOc1ccc(C[C@@H]2NC(=O)CC3(CCCCC3)SSC[C@H](C(=O)N3CCC[C@H]3C(=O)N[C@@H](CCCN=C(N)N)C(=O)NCC(N)=O)NC(=O)[C@@H](CC(N)=O)NC(=O)[C@H](C(C)C)NC(=O)[C@@H](Cc3ccccc3)NC2=O)cc1
Result :: 12

Reference source for all entries: ChEMBL document CHEMBL1123293
